Target: native human transporter GlyT1 (Homo sapiens, UniProt P48067)
Construct: expressing the native human transporter GlyT1; endogenous in cells
Sequence (P48067 whole entry): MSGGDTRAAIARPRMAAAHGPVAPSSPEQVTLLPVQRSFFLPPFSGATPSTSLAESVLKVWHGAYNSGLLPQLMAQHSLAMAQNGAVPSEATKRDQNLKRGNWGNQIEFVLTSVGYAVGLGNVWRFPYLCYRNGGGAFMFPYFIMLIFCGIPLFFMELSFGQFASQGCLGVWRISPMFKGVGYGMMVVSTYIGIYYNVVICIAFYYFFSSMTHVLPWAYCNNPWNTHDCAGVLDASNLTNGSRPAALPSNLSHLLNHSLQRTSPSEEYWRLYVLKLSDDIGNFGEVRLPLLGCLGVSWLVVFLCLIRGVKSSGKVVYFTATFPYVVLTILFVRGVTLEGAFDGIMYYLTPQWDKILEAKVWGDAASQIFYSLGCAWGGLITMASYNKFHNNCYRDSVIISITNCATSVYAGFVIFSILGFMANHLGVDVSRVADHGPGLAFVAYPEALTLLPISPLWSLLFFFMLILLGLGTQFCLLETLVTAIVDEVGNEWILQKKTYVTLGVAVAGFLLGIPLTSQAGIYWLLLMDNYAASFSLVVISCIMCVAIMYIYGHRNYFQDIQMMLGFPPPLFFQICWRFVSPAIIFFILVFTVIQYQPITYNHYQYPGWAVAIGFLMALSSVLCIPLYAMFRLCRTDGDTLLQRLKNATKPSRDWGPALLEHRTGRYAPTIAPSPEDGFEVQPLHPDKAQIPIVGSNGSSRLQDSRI
Assay: Uptake of [14C]glycine in SK-N-MC cells expressing the native human transporter GlyT1
Conditions: 10 μM [14C]glycine, 10 min at 37° C., pH 7.4, read-out: IC50 (concentration of the compound which reduces by 50% the specific uptake of glycine)
Description: Study of Glycine Transportation in SK-N-MC Cells Expressing the Native Human Transporter GlyT1. The uptake of [^14C]glycine is studied in SK-N-MC cells (human neuroepithelial cells) expressing the native human transporter GlyT1 by measuring the radioactivity incorporated in the presence or absence of the test compound. […] The radioactivity incorporated by the cells is then estimated after adding 100 μl of liquid scintillant and stirring for 1 h. […]
Reported pIC50 values follow for various compounds
// pIC50 here means minus log10 of the molar concentration (mol/L)

Lab note: need pIC50 with native human transporter GlyT1 (Homo sapiens, UniProt P48067) for entry CC(C)(O)CN1CC2CC1(C(NC(=O)c1c(Cl)ccc(C(F)(F)F)c1Cl)c1ccccc1)C2 (racemic) , please look it up.
6.96

Lab note: need pIC50 with native human transporter GlyT1 (Homo sapiens, UniProt P48067) for entry O=C(NC(c1ccccc1)C12CC(CN1)C2)c1cccc(C(F)(F)F)c1Cl (racemic) , please look it up.
7.59

Lab note: need pIC50 with native human transporter GlyT1 (Homo sapiens, UniProt P48067) for entry CSc1ccc(Cl)c(C(=O)NC(c2ccccc2)C23CC(CN2)C3)c1 (racemic) , please look it up.
6.80

Lab note: need pIC50 with native human transporter GlyT1 (Homo sapiens, UniProt P48067) for entry CN1CC2CC1(C(NC(=O)c1cccc(C(F)(F)F)c1Cl)c1ccccc1)C2.Cl (racemic) , please look it up.
7.68

Lab note: need pIC50 with native human transporter GlyT1 (Homo sapiens, UniProt P48067) for entry O=C(NC(c1ccccc1)C12CC(CN1CC(F)(F)F)C2)c1c(Cl)ccc(C(F)(F)F)c1Cl (racemic) , please look it up.
6.52

Lab note: need pIC50 with native human transporter GlyT1 (Homo sapiens, UniProt P48067) for entry CCc1ccccc1C(=O)NC(c1ccccc1)C12CC(CN1CC)C2 (racemic) , please look it up.
8.80

***
Lab note: need pIC50 with native human transporter GlyT1 (Homo sapiens, UniProt P48067) for entry Nc1ccc(C(NC(=O)c2cccc(C(F)(F)F)c2Cl)C23CC(CN2)C3)cc1 (racemic) , please look it up.
5.96
